# Measurement notes: in vitro
# Assay conditions: African green monkey
Each record here notes measured CC50.

Observe how each entry below is paired with its result.
>  <Compound>
C=C(C)[C@@H]1CCC(C)=C[C@H]1c1c(O)cc(CCCCC)cc1O [Compound 1, (−)-Cannabidiol]

>  <CC50>
12.1 µM

$$$$
>  <Compound>
CCCCCc1c(CN(CC)CC)c(O)c(C/C=C(\C)CCC=C(C)C)c(O)c1CN(CC)CC [Compound 21b]

>  <CC50>
> 100 µM

$$$$
>  <Compound>
C=C(C)[C@@H]1CCC(C)=C[C@H]1c1c(O)cc(CCCCC)c2c1OCN(CCCC(=O)O)C2

>  <CC50>
~56 µM

$$$$
>  <Compound>
C=C(C)[C@@H]1CCC(C)=C[C@H]1c1c(O)cc(CCCCC)c(COCC)c1O

>  <CC50>
> 100 µM

$$$$
>  <Compound>
CCCCCc1cc(O)c(C/C=C(\C)CCC=C(C)C)c(O)c1 [Compound 2, (−)-cannabigerol]

>  <CC50>
~11 µM

$$$$
>  <Compound>
C=C(C)[C@@H]1CCC(C)=C[C@H]1c1c(O)cc(CCCCC)c2c1OCN(Cc1ccccc1)C2

>  <CC50>
> 100 µM

$$$$

Given the entry CCCCCc1cc(O)c(C/C=C(\C)CCC=C(C)C)c2c1CN(Cc1ccccc1)CO2 [Compound 17a] , report its measured CC50.
> 100 µM

Given the entry `CCCCCc1cc(O)c(C/C=C(\C)CCC=C(C)C)c2c1CN(CCCC(=O)O)CO2` , report its measured CC50.
> 100 µM

Given the entry CCC(CC)COC(=O)[C@H](C)N[P@](=O)(OC[C@H]1O[C@@](C#N)(c2ccc3c(N)ncnn23)[C@H](O)[C@@H]1O)Oc1ccccc1 [Remdesivir, reference compound] , report its measured CC50.
> 100 µM

Given the entry `C=C(C)[C@@H]1CCC(C)=C[C@H]1c1c(O)c(CN(CC)CC)c(CCCCC)c(CN(CC)CC)c1O` , report its measured CC50.
12 µM

Reference for the values: paper PMC10638401
